Measured pEC50, listed per entry for reference.
molecular target: human GPR119 (Homo sapiens); assay: AlphaScreen cAMP assay in MIN6 cells stably transfected with human GPR119; details: Min-6/hGPR119 cells, 45 minutes incubation at room temperature
Sequence (Q8TDV5 whole entry): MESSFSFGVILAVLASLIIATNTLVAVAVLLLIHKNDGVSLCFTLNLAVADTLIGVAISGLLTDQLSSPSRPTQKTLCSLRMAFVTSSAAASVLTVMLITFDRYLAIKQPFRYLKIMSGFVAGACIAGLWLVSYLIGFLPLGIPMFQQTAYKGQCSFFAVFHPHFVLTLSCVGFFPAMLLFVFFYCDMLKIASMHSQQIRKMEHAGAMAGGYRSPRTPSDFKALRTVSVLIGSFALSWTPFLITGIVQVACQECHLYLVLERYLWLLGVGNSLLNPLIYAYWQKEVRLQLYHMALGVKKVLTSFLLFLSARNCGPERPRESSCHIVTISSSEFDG
pEC50: −log10 of the molar value.
ATTRIBUTE MEASURED: pEC50

[[record]]
molecule = "CC(C)(F)CN1CCC(N(C(=O)c2cc(-c3ccc(C#N)cc3F)no2)C2CC2)CC1"
measured_value = 7.66

[[record]]
molecule = "O=C(c1cnc(-n2cncn2)cn1)N(C1CC1)[C@@H]1CCN(CC2(C(F)(F)F)CC2)C[C@@H]1F (single isomer, unassigned)"
measured_value = 8.70

[[record]]
molecule = "O=C(c1ccc(-c2cnco2)cc1)N(C1CC1)C1CCN(CC2(C(F)(F)F)CC2)CC1"
measured_value = 7.10

[[record]]
molecule = "O=C(c1ccc(-c2cnco2)cc1)N(C1CC1)C1CCN(CCC(F)(F)F)CC1"
measured_value = 6.19

[[record]]
molecule = "N#Cc1ccc(-c2cc(C(=O)N(C3CC3)C3CCN(CC4(C(F)(F)F)CC4)CC3)on2)c(F)c1"
measured_value = 8.05

[[record]]
molecule = "CC(C)(F)CN1CCC(N(C(=O)c2ccc(-c3cnco3)cc2)C2CC2)CC1"
measured_value = 6.34

[[record]]
molecule = "CC(C)(F)CN1CCC(N(C(=O)c2cc(-c3ccc(C#N)cc3)on2)C2CC2)CC1"
measured_value = 7.30

[[record]]
molecule = "N#Cc1ccc(-c2cc(C(=O)N(C3CC3)C3CCN(CC4(C(F)(F)F)CC4)CC3)no2)cc1"
measured_value = 7.57

